# key: entry, value: Plant response rating (scale of 0 to 100), Crabgrass, Large
- Test system: crabgrass, large (large crabgrass, Digitaria sanguinalis)
- protocol-summary: Test C preemergence
- Assay type: in vivo
- condition-set: 31 g ai/ha, 0 is no effect, 100 is complete control
Just the number.

- molecule: "Cc1ccc(C2CN(C)C(=O)C2C(=O)Nc2cccc(F)c2F)cc1 (stereo not shown) [Compound 662]"
  tgt: "crabgrass, large (large crabgrass, Digitaria sanguinalis)"
  endpoint-value: 98
- molecule: "Cc1cccc(C2CN(C)C(=O)C2C(=O)Nc2cccc(F)c2F)c1 (stereo not shown) [Compound 667]"
  tgt: "crabgrass, large (large crabgrass, Digitaria sanguinalis)"
  endpoint-value: 95
- molecule: "CN1CC(c2ccc(C(F)(F)F)cc2)C(C(=O)Nc2ccccc2S(C)(=O)=O)C1=O (stereo not shown) [Compound 624]"
  tgt: "crabgrass, large (large crabgrass, Digitaria sanguinalis)"
  endpoint-value: 95

[ask] crabgrass, large (large crabgrass, Digitaria sanguinalis) / Plant response rating (scale of 0 to 100), Crabgrass, Large / CN1CC(c2cccc(C(F)(F)F)c2)C(C(=O)Nc2ccccc2S(C)(=O)=O)C1=O (stereo not shown) [Compound 637] : value?
[reply] 95

----------
- Tested on: ivy-leaved morning glory (Ipomoea hederacea)
- protocol-summary: Test G Post-Emergence Protocol
- Type: in vivo
- condition-set: Ipomoea, post-emergence, 312 h, 62.5 g ai/ha, evaluated after 13 days, read-out: Morningglory, Ivy-leaved damage rating (100=total damage to plant; 0=no damage to plant)
# key: entry, value: pest or weed control at 62.5 g/ha
A number alone suffices; assume %.

Use these answered entries as a reference point.
- molecule: "Cc1nc(F)ccc1[C@@H]1CN(C)C(=O)[C@H]1C(=O)Nc1cccc(F)c1F (racemic)"
  pest or weed control at 62.5 g/ha / %: 0
- molecule: "CN1C[C@@H](c2ccc(C(F)(F)F)cc2)[C@H](C(=O)Nc2sccc2C#N)C1=O (racemic)"
  pest or weed control at 62.5 g/ha / %: 30
- molecule: "COc1nccc(NC(=O)[C@@H]2C(=O)N(C)C[C@H]2c2ccc(C(F)(F)F)cc2)n1 (racemic)"
  pest or weed control at 62.5 g/ha / %: 0

[ask] Report pest or weed control at 62.5 g/ha for CN1C[C@@H](c2ccc(C(F)(F)F)cc2)[C@H](C(=O)Nc2nnc[nH]2)C1=O (racemic) please.
[reply] 0

[ask] Report pest or weed control at 62.5 g/ha for CN1C[C@@H](c2ccc(C(F)(F)F)cc2)[C@H](C(=O)Nc2cc(C(F)(F)F)n(C)n2)C1=O (racemic) please.
[reply] 0

[ask] Report pest or weed control at 62.5 g/ha for CN1C[C@@H](c2ccc(C(F)(F)F)cc2)[C@H](C(=O)Nc2ccnnc2)C1=O (racemic) please.
[reply] 0

[ask] Report pest or weed control at 62.5 g/ha for CN1C[C@H](c2ccc(C(F)(F)F)cc2)[C@@H](C(=O)Nc2cccc(C(F)F)c2)C1=O (racemic) please.
[reply] 0

[ask] Report pest or weed control at 62.5 g/ha for CSc1ccccc1NC(=O)[C@@H]1C(=O)N(C)C[C@H]1c1ccc(C(F)(F)F)nc1 (racemic) please.
[reply] 20

[ask] Report pest or weed control at 62.5 g/ha for CN1C[C@H](c2ccc(C(F)(F)F)cc2)[C@@H](C(=O)Nc2ccc(Cl)cc2[N+](=O)[O-])C1=O (racemic) please.
[reply] 0
